PROTOCOL SUMMARY: melting temperature; fluorescence melt of hairpins on a sequencing array, two-state fit, raised by 9.35 °C to match UV melts
CONDITION SUMMARY: sodium 0.088 M
Tm vs 60 °C: at or above is true, below is false.

Below are worked cases with known answers.
SEQUENCE CODE: GTAGTCCGAAAGGATTAC (((.(((....))).)))
CAT: false
--
SEQUENCE CODE: GCGCTCGAAAGAGAACGC ((((((....)))..)))
CAT: false
--
SEQUENCE CODE: GTACGCGAAAGCGTATAC ((((((....)))..)))
CAT: false

IN: I'd appreciate it if you could say whether GGCACACGAAAGTGAGCC (((.(((....))).))) has Tm at least equal to 60 °C.
OUT: true

IN: I'd appreciate it if you could say whether GGTGAGCGAAAGCTACC (((.(((....)))))) has Tm at least equal to 60 °C.
OUT: false

IN: I'd appreciate it if you could say whether GATCTTAGGGAAGATC ((((((....)))))) has Tm at least equal to 60 °C.
OUT: false

IN: I'd appreciate it if you could say whether GGCTTCCGAAAGGACGCC (((.(((....))).))) has Tm at least equal to 60 °C.
OUT: false

IN: I'd appreciate it if you could say whether GAGCAACCGAAAGGTCTC (((..(((....)))))) has Tm at least equal to 60 °C.
OUT: false

IN: I'd appreciate it if you could say whether GTGCACGAAAGTGTGCAC ((((((....)))..))) has Tm at least equal to 60 °C.
OUT: true

IN: I'd appreciate it if you could say whether GCGACGCGAAAGCATCGC ((((.((....)).)))) has Tm at least equal to 60 °C.
OUT: true

IN: I'd appreciate it if you could say whether GGGTATGGAAACGTACCC (((((.(....).))))) has Tm at least equal to 60 °C.
OUT: false

IN: I'd appreciate it if you could say whether GTAGTTCGAAAGAATTAC (((.(((....))).))) has Tm at least equal to 60 °C.
OUT: false

IN: I'd appreciate it if you could say whether GCAGTCGAAAGACCTGC ((((((....))).))) has Tm at least equal to 60 °C.
OUT: false

Source of measurements: the array DNA melting data of Ke et al. (doi:10.1101/2024.01.08.574731)
